For each record, write down the corresponding inhibition.
Target: Thromboxane-A synthase (Rattus norvegicus)
Assay: Inhibitory activity for thromboxane synthetase determined by TXB2 levels in platelets from spontaneously hypertensive rats.
Set-up: concentration or dose not given beside the values
Settings: concentration not given here
Field format: number, assumed %, no unit text.

Reported inhibition of O=C(NCCCCn1ccnc1)c1ccccc1 : 91

Reported inhibition of O=C(NCCCn1ccnc1)c1cccc(F)c1 : 96

Reported inhibition of O=C(NCCCn1ccnc1)c1ccccc1F : 84

Reported inhibition of COc1cc(C(=O)NCCCn2ccnc2)cc(OC)c1OC : 100

Reported inhibition of O=C(NCCCn1cncn1)c1ccc(F)cc1 : 67

Reported inhibition of O=C(NCCCCn1cncn1)c1cccc(Cl)c1 : 87

Reported inhibition of O=C(NCCCn1cncn1)c1ccccc1-c1ccccc1 : 65

Reported inhibition of CCNc1ccccc1C(=O)NCCCn1ccnc1 : 86

Reported inhibition of O=C(NCCCn1ccnc1)c1ccccc1Br : 50

Reported inhibition of O=C(CCc1ccccc1)NCCCn1ccnc1 : 64

Reported inhibition of O=C(NCCCn1ccnc1)c1ccccc1 : 96

Reported inhibition of O=C(NCCCCCn1cncn1)c1ccc(Br)cc1 : 81

Reported inhibition of O=C(NCCCn1cncn1)c1ccc(Cl)cc1 : 16

Reported inhibition of O=C(NC/C=C/Cn1ccnc1)c1ccc(C(F)(F)F)cc1 (stereo in doubt; 54) : 95

Reported inhibition of N#Cc1ccc(C(=O)NCCCn2ccnc2)cc1 : 91

Reported inhibition of CC(=O)Nc1ccc(C(=O)NCCCn2cncn2)cc1 : 75

Reported inhibition of O=C(NCCCn1ccnc1)c1ccc(F)cc1 : 87

Reported inhibition of CC(CCNC(=O)c1cccc(Cl)c1)n1ccnc1 (configuration not stated) : 93

Reported inhibition of Cc1cn(CCCNC(=O)c2ccc(C(F)(F)F)cc2)cn1 : 92

Reported inhibition of O=C(NCCCCCn1cncn1)c1ccc(Cl)cc1 : 79

Reported inhibition of CC(C)(C)c1ccc(C(=O)NCCCn2cncn2)cc1 : 86

Reported inhibition of O=C(NCCCn1cncn1)c1ccc(Br)cc1 : 40

Reported inhibition of Cc1nccn1CCCNC(=O)c1ccc(C(F)(F)F)cc1 : 36

Reported inhibition of CC(=O)Nc1ccc(C(=O)NCCCn2ccnc2)cc1 : 99

Reported inhibition of O=C(COc1ccccc1)NCCCn1ccnc1 : 86

Reported inhibition of O=C(NCCCCCCCCn1ccnc1)c1ccc(Br)cc1 : 100

Reported inhibition of CCCCOc1ccc(C(=O)NCCCn2cncn2)cc1 : 71

* * *

Target: Thromboxane-A synthase (Rattus norvegicus) (UniProt P49430)
Test: Inhibitory activity for thromboxane synthetase determined by TXB2 levels in platelets from spontaneously hypertensive rats.
Set-up: concentration or dose not given beside the values
Settings: concentration not given here
metric_name: inhibition (%)
Field format: number, assumed %, no unit text.

Reported inhibition of O=C(NCCCn1ccnc1)c1ccc(Cl)cc1 : 95

Reported inhibition of O=C(O)c1ccccc1C(=O)NCCCCn1ccnc1 : 50

Reported inhibition of O=C(NCCCn1ccnc1)c1cccc(C(F)(F)F)c1 : 100

Reported inhibition of Cc1ccc(CC(=O)NCCCn2ccnc2)cc1 : 58

Reported inhibition of O=C(O)c1ccccc1C(=O)NCCCn1ccnc1 : 82

Reported inhibition of O=C(NCCCn1ccnc1)c1ccc(Cl)c(Cl)c1 : 93

Reported inhibition of O=C(NCCCCn1ccnc1)c1ccc(Cl)cc1 : 95

Reported inhibition of Cc1cn(CCCNC(=O)c2ccc(I)cc2)cn1 : 99

Reported inhibition of O=C(NCCCn1ccnc1)c1ccc(Br)cc1 : 85

Reported inhibition of CCc1nccn1CCCNC(=O)c1ccc(Cl)cc1 : 32

Reported inhibition of O=C(NCCCn1cnc(-c2ccccc2)c1)c1ccc(Cl)cc1 : 69

Reported inhibition of O=C(NCCCCn1ccnc1)c1ccc(Br)cc1 : 87

Reported inhibition of O=C(NCCCCn1cncn1)c1ccc(C(F)(F)F)cc1 : 38

Reported inhibition of C=CCNc1ccc(Cl)cc1C(=O)NCCCn1ccnc1 : 95

Reported inhibition of Cc1nccn1CCCNC(=O)c1cccc(Br)c1 : 64

Reported inhibition of COc1ccc(C(=O)NCCCn2ccnc2)cc1 : 89

Reported inhibition of CC(CCNC(=O)c1ccc(C(F)(F)F)cc1)n1ccnc1 (centres undefined) : 94

Reported inhibition of CN(C)c1ccc(C(=O)NCCCn2ccnc2)cc1 : 93

Reported inhibition of O=C(NC/C=C/Cn1ccnc1)c1ccc(C(F)(F)F)cc1 (stereo in doubt; 53) : 93

Reported inhibition of O=C(NCCCn1ccnc1)c1ccc(C(F)(F)F)cc1 : 93

Reported inhibition of Cc1nccn1CCCNC(=O)c1ccc(Cl)c(Cl)c1 : 82

Reported inhibition of O=C(NCCCCCCCCn1ccnc1)c1ccc(Cl)cc1 : 100

Reported inhibition of O=C(NCCCn1cncn1)c1cccc([N+](=O)[O-])c1 : 72

Reported inhibition of O=C(/C=C/c1ccc(Cl)cc1)NCCCn1cncn1 : 47

* * *

Biological target: Thromboxane-A synthase (Rattus norvegicus, UniProt P49430)
Sequence (P49430 whole entry): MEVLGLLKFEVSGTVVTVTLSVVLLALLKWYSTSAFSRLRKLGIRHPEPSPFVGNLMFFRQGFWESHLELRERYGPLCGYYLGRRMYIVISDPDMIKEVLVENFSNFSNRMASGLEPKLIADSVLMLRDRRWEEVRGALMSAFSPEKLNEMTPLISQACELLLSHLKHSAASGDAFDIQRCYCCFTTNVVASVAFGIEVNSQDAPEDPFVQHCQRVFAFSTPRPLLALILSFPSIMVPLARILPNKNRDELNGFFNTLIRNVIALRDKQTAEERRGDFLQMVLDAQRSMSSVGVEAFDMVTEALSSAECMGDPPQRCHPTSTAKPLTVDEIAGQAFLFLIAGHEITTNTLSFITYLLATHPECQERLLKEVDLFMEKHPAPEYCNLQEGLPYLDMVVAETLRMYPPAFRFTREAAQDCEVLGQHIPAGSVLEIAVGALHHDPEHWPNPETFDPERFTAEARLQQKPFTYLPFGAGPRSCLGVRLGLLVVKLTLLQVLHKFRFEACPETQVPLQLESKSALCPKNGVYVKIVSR
Assay: Compound was tested for inhibitory activity against thromboxane synthetase
Decide using IC50 alone. Strictly below 700 nM: yes. Equal to or above 700 nM: no.

Prompt: For this compound, is IC50 lower than 700 nM? O=C(NCCCCCCn1ccnc1)c1ccc(Cl)cc1
Response: no

Prompt: For this compound, is IC50 lower than 700 nM? O=C(NCCCn1ccnc1)c1ccc(I)cc1
Response: yes

Prompt: For this compound, is IC50 lower than 700 nM? O=C(NCCCCn1ccnc1)c1ccc(Cl)cc1
Response: no

Prompt: For this compound, is IC50 lower than 700 nM? O=C(NCCCn1ccnc1)c1cccc(C(F)(F)F)c1
Response: no

Prompt: For this compound, is IC50 lower than 700 nM? CSc1ccc(C(=O)NCCCn2ccnc2)cc1
Response: yes

Prompt: For this compound, is IC50 lower than 700 nM? O=C(NCCCCCCCCn1ccnc1)c1ccc(Cl)cc1
Response: yes

* * *

Biological target: Thromboxane-A synthase (Rattus norvegicus) (UniProt P49430)
Assay: Inhibitory activity for thromboxane synthetase determined by TXB2 levels in platelets from spontaneously hypertensive rats.
Set-up: concentration or dose not given beside the values
Settings: concentration not given here
Outcome: Satisfied for inhibition of at least 80%; Not satisfied for anything lower.

Prompt: I'd appreciate it if you could say whether CC(CCNC(=O)c1ccc(Br)cc1)n1ccnc1 (configuration not stated) has inhibition at least equal to 80%.
Response: Satisfied

Prompt: I'd appreciate it if you could say whether O=C(Cc1cccc(Cl)c1)NCCCn1ccnc1 has inhibition at least equal to 80%.
Response: Not satisfied

Prompt: I'd appreciate it if you could say whether Cc1nccn1CCCNC(=O)c1ccc(Cl)cc1 has inhibition at least equal to 80%.
Response: Not satisfied

Prompt: I'd appreciate it if you could say whether O=C(NCCCn1cncn1)c1cccc(C(F)(F)F)c1 has inhibition at least equal to 80%.
Response: Not satisfied

Prompt: I'd appreciate it if you could say whether O=C(NCCCn1cncn1)c1ccccc1 has inhibition at least equal to 80%.
Response: Not satisfied

Prompt: I'd appreciate it if you could say whether Cc1cn(CCCNC(=O)c2cccc(Br)c2)cn1 has inhibition at least equal to 80%.
Response: Satisfied

Prompt: I'd appreciate it if you could say whether O=C(NCCCCn1cncn1)c1ccc(Br)cc1 has inhibition at least equal to 80%.
Response: Satisfied

Prompt: I'd appreciate it if you could say whether O=C(NC/C=C/Cn1ccnc1)c1ccc(Cl)cc1 (stereo in doubt; 52) has inhibition at least equal to 80%.
Response: Satisfied

Prompt: I'd appreciate it if you could say whether O=C(NCCCn1ccnc1)c1ccc(I)cc1 has inhibition at least equal to 80%.
Response: Satisfied

Prompt: I'd appreciate it if you could say whether CSc1ccc(C(=O)NCCCn2ccnc2)cc1 has inhibition at least equal to 80%.
Response: Satisfied

Prompt: I'd appreciate it if you could say whether O=C(NCCCn1cncn1)c1ccc(C(=O)c2ccccc2)cc1 has inhibition at least equal to 80%.
Response: Not satisfied

Prompt: I'd appreciate it if you could say whether O=C(Cc1cccc(Cl)c1)NCCCn1cncn1 has inhibition at least equal to 80%.
Response: Not satisfied

Prompt: I'd appreciate it if you could say whether O=C(NCCn1ccnc1)c1ccc(Cl)c(Cl)c1 has inhibition at least equal to 80%.
Response: Not satisfied

Prompt: I'd appreciate it if you could say whether CN(C)c1ccc(C(=O)NCCCn2cncn2)cc1 has inhibition at least equal to 80%.
Response: Not satisfied

Prompt: I'd appreciate it if you could say whether O=C(NCCCn1cncn1)c1ccccc1F has inhibition at least equal to 80%.
Response: Not satisfied

Prompt: I'd appreciate it if you could say whether CC(=O)c1ccc(C(=O)NCCCn2ccnc2)cc1 has inhibition at least equal to 80%.
Response: Satisfied

Prompt: I'd appreciate it if you could say whether O=C(NCCCCn1cncn1)c1ccccc1-c1ccccc1 has inhibition at least equal to 80%.
Response: Satisfied

Prompt: I'd appreciate it if you could say whether O=C(O)c1ccccc1C(=O)NCCCn1cncn1 has inhibition at least equal to 80%.
Response: Not satisfied

Prompt: I'd appreciate it if you could say whether O=C(NCCn1cncn1)c1ccc(Br)cc1 has inhibition at least equal to 80%.
Response: Not satisfied

Prompt: I'd appreciate it if you could say whether Cc1nccn1CCCNC(=O)c1cccc(C(F)(F)F)c1 has inhibition at least equal to 80%.
Response: Not satisfied

Prompt: I'd appreciate it if you could say whether O=C(NCCCCn1ccnc1)c1ccc(Cl)c(Cl)c1 has inhibition at least equal to 80%.
Response: Satisfied

Prompt: I'd appreciate it if you could say whether Cc1nccn1CCCNC(=O)c1cccc(Cl)c1 has inhibition at least equal to 80%.
Response: Not satisfied

Prompt: I'd appreciate it if you could say whether O=C(NCCCn1ccnc1)c1cccc(Cl)c1 has inhibition at least equal to 80%.
Response: Not satisfied

Prompt: I'd appreciate it if you could say whether Cc1cn(CCCNC(=O)c2ccc(Cl)cc2)cn1 has inhibition at least equal to 80%.
Response: Satisfied

Prompt: I'd appreciate it if you could say whether O=C(/C=C/c1ccc(Cl)cc1)NCCCn1ccnc1 has inhibition at least equal to 80%.
Response: Satisfied
